Molecular target: activated human blood coagulation factor X (Homo sapiens, UniProt P00742)
Construct: purchased Enzyme Research Co
Sequence (P00742 235-488 limits assumed): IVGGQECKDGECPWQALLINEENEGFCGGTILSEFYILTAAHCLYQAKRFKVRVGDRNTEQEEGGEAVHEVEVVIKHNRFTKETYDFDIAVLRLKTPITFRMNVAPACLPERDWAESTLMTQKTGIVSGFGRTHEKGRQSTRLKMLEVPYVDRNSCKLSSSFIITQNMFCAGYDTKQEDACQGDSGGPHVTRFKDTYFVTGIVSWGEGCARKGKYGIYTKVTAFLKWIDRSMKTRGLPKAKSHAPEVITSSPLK
Sequence (P00742 41-179 partner limits assumed): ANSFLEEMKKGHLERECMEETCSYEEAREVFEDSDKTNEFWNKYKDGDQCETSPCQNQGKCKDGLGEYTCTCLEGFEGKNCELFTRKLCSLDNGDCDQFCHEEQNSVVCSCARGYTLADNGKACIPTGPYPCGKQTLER
Experiment: Determination of activity of inhibiting the activated blood-coagulation factor X (chromogenic substrate, initial rate)
Assay type: biochemical
Details: negative logarithm of concentration inhibiting 50% of initial rate; tris hydrochloride buffer pH 8.4, room temperature; read-out: Activity of inhibiting activated blood coagulation factor X (pIC50) (converted)
observable: IC50 (nM)

Examples with answers:
O=C(c1ccc(CN2C(=O)CN(C(=O)c3ccc(Cl)cc3)Cc3ccc(CCCO)cc32)cc1)N1CC=CC1 [Compd. of Ex. 90]	39.8
CC(C)N1CCN(C(=O)CCc2ccc3c(c2)N(Cc2ccc(C(=O)N4CC=CC4)cc2)C(=O)CN(C(=O)c2ccc(Cl)cc2)C3)CC1.O=C(O)C(F)(F)F [Compd. of Ex. 115, trifluoroacetate]	63.1
O=C(c1ccc(CN2C(=O)CN(C(=O)c3ccc(Cl)cc3)Cc3ccc(CCP(=O)(O)O)cc32)cc1)N1CCCC1 [Compd. of Ex. 71-1]	25.1
CC(C)N1CCC(CCN2C(=O)CN(C(=O)c3ccc(Cl)cc3)Cc3ccccc32)CC1.O=C(O)C(F)(F)F [Compd. of Ex. 169, trifluoroacetate]	316
O=C(O)C(F)(F)F.O=C(c1ccc(Br)s1)N1CC(=O)N(CC2CCN(c3ccncc3)CC2)c2ccccc2C1 [Compd. of Ex. 25, trifluoroacetate]	398

A = O=C(O)C(F)(F)F.O=C(c1ccc(Cl)cc1)N1CC(=O)N(CC2CCN(c3ccncc3)CC2)c2ccccc2C1 [Compd. of Ex. 2, trifluoroacetate]
B = O=C(O)C(F)(F)F.O=C(c1ccc(CN2C(=O)CN(C(=O)c3ccc(Cl)cc3)Cc3ccccc32)nc1)N1CC=CC1 [Compd. of Ex. 181, trifluoroacetate]
Task: When the recorded IC50 values are compared, which is smaller: that of A or that of B ? Please respond with the label that marks your chosen entry.
Result: B
(B: 79.4 nM, A: 398 nM)
